Test system: SK-MEL-2 melanoma
Experiment: NCI-60 one-dose screen, 48 h
Settings: 10 µM unless noted
About 83,000 compounds went through this panel and 20% of them were active in at least one assay; those are over-represented in the sample as a whole. Active and inactive are the calls of the source. The calls were made as follows: active = growth percent below 10; inactive = the rest.
Outcomes you can answer with include only these: active, inactive

Recorded results for 10 compounds are shown here.
{"columns": ["Compound", "Group"],
 "data": [
  ["COc1cc(NCCN(CC(C)C)C2CCCC2)c2ncccc2c1", "inactive"],
  ["C=C(C)[C@@H]1CC[C@]2(C(=O)N3CCN(C)CC3)CC[C@]3(C)[C@H](CC[C@@H]4[C@@]5(C)CCC(=O)C(C)(C)[C@@H]5CC[C@]43C)[C@@H]12", "inactive"],
  ["CC(=O)c1c[nH]c2ccc(-c3ccnc(Nc4ccc(NC(=O)c5cccc(F)c5)c(CN5CCOCC5)c4)n3)cc12", "active"],
  ["CC(O)/C=C/C=C/C(O)CC/C=C/C(=O)NCC(C)(C)O (centres undefined)", "inactive"],
  ["COc1ccc(/C(C)=N/NC(=O)CSc2nc3ccccc3c(=O)n2Cc2ccc(S(N)(=O)=O)cc2)c(OC)c1", "inactive"],
  ["Nc1c(Cl)cc([N+](=O)[O-])cc1Br", "inactive"],
  ["COc1ccc(C(=O)c2cc3c(N)c(C(=O)Nc4ccc(Cl)cc4)sc3nc2C)cc1", "inactive"],
  ["COc1cc(C(=O)/C=C/c2c(C)n([O-])c3ccc(Cl)cc3[n+]2=O)cc(OC)c1OC", "inactive"],
  ["O=C(Nc1ccc2cc3ccc(NC(=O)N4CCCCCC4)cc3nc2c1)N1CCCCCC1", "active"],
  ["N#Cc1ccc(-c2ccc3c(c2)NC(=O)/C3=C\\c2ccc[nH]2)cc1", "inactive"]
]}

Problem: For COc1ccc2c(c1)OC1=C(C(=O)OC1)C2c1cc(OC)c(OC)c(OC)c1 (centres undefined) , which call appears in the assay record?
Result: inactive

Problem: Check the results log: what was the call for O=C(Nc1cccc(Cl)c1)Oc1c(Br)c(Br)c(Br)c(Br)c1Br ?
Result: inactive

Problem: Which result was noted for this compound in the test: Cc1n[nH]c(C)c1-c1c(C)n[nH]c1C
Result: inactive

Problem: How was FC(F)(F)c1cccc(Nc2ccccc2)c1 classified in this test?
Result: inactive

Problem: Could you kindly confirm the outcome this assay logged for Fc1cc(C2=NNC(c3ccc[nH]3)C2)ccc1-n1ccc(C(F)(F)F)n1 (centres undefined) ?
Result: inactive

Problem: Just curious, what result did N/C(=N\N=C\c1cc2ccccc2[nH]1)N/N=C/c1cc2ccccc2[nH]1 get here?
Result: inactive
